B1: Far upstream element-binding protein 3, residues 75 to 150; numbered along this chain, Q96I24 (parent)
chain: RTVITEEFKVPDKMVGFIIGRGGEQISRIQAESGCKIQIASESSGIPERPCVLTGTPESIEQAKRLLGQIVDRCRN

variants of: B1; assay: abundance fitness (aPCA) (normalised: wild type 0, dead -1); higher = more abundant; growth selection in yeast, the domain comes from the species named; settings: Homo sapiens
Consider the following variants; for each one, report its abundance fitness.
Answers are plain numbers.

Look over these answered cases.
1. RTVITEEFKVPDKMVGFIIGRGGEQISRIQAESGCKIQIASESSGIPERPCVLTGTPESIEQAKRLLGFIVDRCRN ... -0.181
2. RTVITEEFKVPDKMVGFIIGRGGEQISRIQAESGCCIQIASESSGIPERPCVLTGTPESIEQAKRLLGQIVDRCRN ... -0.116
3. RTVITEEFKVPDKMVGFIIGHGGEQISRIQAESGCKIQIASESSGIPERPCVLTGTPESIEQAKRLLGQIVDRCRN ... -0.028
4. RTVITEEFKVPDKAVGFIIGRGGEQISRIQAESGCKIQIASESSGIPERPCVLTGTPESIEQAKRLLGQIVDRCRN ... -0.172
5. RTVITEEFKVPDKMVGFIIGRGGEQISRIQAESGCKIQIASESLGIPERPCVLTGTPESIEQAKRLLGQIVDRCRN ... -0.017
6. RTVITEEFKVPDKMVGFIIVRGGEQISRIQAESGCKIQIASESSGIPERPCVLTGTPESIEQAKRLLGQIVDRCRN ... -0.707
7. RTVITEEFKVPDKMVGFIIGRGGEQISRIQAESSCKIQIASESSGIPERPCVLTGTPESIEQAKRLLGQIVDRCRN ... -0.079
8. RTVITEEFKVPDKMVGFIIGRGGEQISRIRAESGCKIQIASESSGIPERPCVLTGTPESIEQAKRLLGQIVDRCRN ... -0.05
9. RTVITEEFKVPDKMVGFIIGRGGEQISRIQAESGCKIQIASESSGIPERPCVLTGTPEHIEQAKRLLGQIVDRCRN ... -0.221
10. RTVITEEFKVPDKMVGFIIGRGGEQISRIQAESGCKIQIASESSGIPERPCVLTGTPESWEQAKRLLGQIVDRCRN ... -0.995

Hi team, please reply with abundance fitness for each item in this list.
1. RTVIGEEFKVPDKMVGFIIGRGGEQISRIQAESGCKIQIASESSGIPERPCVLTGTPESIEQAKRLLGQIVDRCRN
2. RTVITEEFKVPDKMVGFIIGRGGEQISRIQAESACKIQIASESSGIPERPCVLTGTPESIEQAKRLLGQIVDRCRN
3. RTVITEEFKVPDKMVGFIIGRGGEQISRCQAESGCKIQIASESSGIPERPCVLTGTPESIEQAKRLLGQIVDRCRN
4. RTVITEEFKVPDKMVGFIIGRGGEQISRIQAESGCKIQIMSESSGIPERPCVLTGTPESIEQAKRLLGQIVDRCRN

[-0.3, -0.124, -0.191, -0.063]

For each listed entry, give its abundance fitness.
1. RTVITEEFKVPDKMVGFDIGRGGEQISRIQAESGCKIQIASESSGIPERPCVLTGTPESIEQAKRLLGQIVDRCRN
2. RTVITEEFKVPDKMVGFIIGRGGEQISRIQAESGCKIQIASESSGIPERPCVLTGTWESIEQAKRLLGQIVDRCRN
3. RTVITEEFKVPDKMVGFIIGRVGEQISRIQAESGCKIQIASESSGIPERPCVLTGTPESIEQAKRLLGQIVDRCRN
4. RTVITEEFKVPDKMVGFIIGRGGEQISRIQAESGCKIQIASESSGIPERPCVLTGTPESIEQAKVLLGQIVDRCRN
5. RTVITEEFKVPDKMVGFIIGRGGEQISRIQAESGCKIQIASESSGIPERPCVLTGTPESIEQAKRLLGQIVDRCQN

[-0.142, -0.073, -0.191, -0.006, -0.026]

Lab note: each variant below needs its abundance fitness filled in.
1. RTVITEEFKVPDKWVGFIIGRGGEQISRIQAESGCKIQIASESSGIPERPCVLTGTPESIEQAKRLLGQIVDRCRN
2. RTVITEEFKVPDKMVCFIIGRGGEQISRIQAESGCKIQIASESSGIPERPCVLTGTPESIEQAKRLLGQIVDRCRN
3. RTVITREFKVPDKMVGFIIGRGGEQISRIQAESGCKIQIASESSGIPERPCVLTGTPESIEQAKRLLGQIVDRCRN
4. RTVITEEFKVPDKMVGFIIGRGGEQISRIQAESGCKIQFASESSGIPERPCVLTGTPESIEQAKRLLGQIVDRCRN
5. RTVITEEFKVPDKMVGFIIGRGGEQISRIQAESGCKIQIASESSPIPERPCVLTGTPESIEQAKRLLGQIVDRCRN
6. RTVITEEFCVPDKMVGFIIGRGGEQISRIQAESGCKIQIASESSGIPERPCVLTGTPESIEQAKRLLGQIVDRCRN
7. RTVITEEFKVPDKMVEFIIGRGGEQISRIQAESGCKIQIASESSGIPERPCVLTGTPESIEQAKRLLGQIVDRCRN

1. -0.063
2. -0.074
3. -0.099
4. -0.114
5. -0.067
6. -0.057
7. -0.001
